IC50 listing for selected compounds.
Target: UniProtKB O60502
Sequence (O60502 1-916): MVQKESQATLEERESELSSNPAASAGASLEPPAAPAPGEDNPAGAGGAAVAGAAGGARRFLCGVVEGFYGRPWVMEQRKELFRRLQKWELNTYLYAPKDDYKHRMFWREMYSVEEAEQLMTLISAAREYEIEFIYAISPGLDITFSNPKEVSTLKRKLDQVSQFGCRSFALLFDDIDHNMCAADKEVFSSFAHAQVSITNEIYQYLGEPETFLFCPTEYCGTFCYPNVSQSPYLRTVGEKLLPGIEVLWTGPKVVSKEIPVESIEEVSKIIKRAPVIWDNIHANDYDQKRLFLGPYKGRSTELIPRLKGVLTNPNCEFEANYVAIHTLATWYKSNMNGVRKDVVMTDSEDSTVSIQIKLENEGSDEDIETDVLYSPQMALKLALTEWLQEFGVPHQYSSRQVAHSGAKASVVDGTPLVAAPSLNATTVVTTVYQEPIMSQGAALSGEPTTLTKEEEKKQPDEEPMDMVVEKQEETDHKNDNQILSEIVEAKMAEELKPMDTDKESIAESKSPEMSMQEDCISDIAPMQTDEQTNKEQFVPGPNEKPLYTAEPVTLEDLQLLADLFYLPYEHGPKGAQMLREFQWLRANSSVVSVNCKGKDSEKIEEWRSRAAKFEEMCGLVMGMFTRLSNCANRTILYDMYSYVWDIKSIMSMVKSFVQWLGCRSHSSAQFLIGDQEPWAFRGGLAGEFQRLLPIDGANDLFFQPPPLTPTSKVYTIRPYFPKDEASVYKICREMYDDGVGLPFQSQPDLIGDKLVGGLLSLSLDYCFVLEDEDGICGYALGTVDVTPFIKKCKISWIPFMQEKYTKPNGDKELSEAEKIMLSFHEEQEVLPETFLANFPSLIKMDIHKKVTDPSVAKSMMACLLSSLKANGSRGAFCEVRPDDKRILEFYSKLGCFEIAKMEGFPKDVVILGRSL
Write down the numeric answer in nM and omit the unit.

Compound | Measurement Units | IC50
CNC(=O)C[C@@H]1[C@H](O)[C@H](O)[C@@H](CO)N1CCCCc1ccccc1 [Compound A020] | nM | 23
CNC(=O)C[C@@H]1[C@H](O)[C@H](O)[C@@H](CO)N1CCOc1ccccc1 [Compound A037] | nM | 228
CCCCCCN1[C@H](CO)[C@@H](O)[C@@H](O)[C@@H]1CC(=O)NC [Compound A034] | nM | 68000

Shifting focus to the compound that follows.
Per the records, this compound ( CNC(=O)C[C@@H]1[C@H](O)[C@H](O)[C@@H](CO)N1CCc1ccccc1 [Compound A010] ) has IC50 equal to 9
